meta.source: PubChem BioAssay

# protocol-description: probe aEGFR binding to arrayed compounds – biochemical, biotinylated probe, 635/667 nm fluorescence, primary screen (AID 1097);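 also: probe is a biotinylated anti-EGFR antibody binding compounds printed on slides; score combines fluorescence near 667 nm and signal to noise of each spot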
# condition-description: small-molecule microarray, higher = more signal
Parameter threshold = -0.1. Response is fulfilled when composite z-score meets or exceeds it, else not fulfilled.

{"compound": "CCCCCCc1nc(-c2ccc(-c3ccc(Cl)c(Cl)c3)o2)cc2c1[Si](C(C)C)(C(C)C)O[C@H]2c1ccccc1", "label-value": "not fulfilled"}
{"compound": "C[N+](C)(C)CCCC[C@@H]1NC(=O)[C@H]2C[C@@H](C(=O)NCCCCCCNC(=O)CS)[C@@H](c3ccc(O)cc3)N2C1=O", "label-value": "not fulfilled"}
{"compound": "COCCOC(=O)N1C(=O)[C@@]2(c3cc(C#CC4(O)CCCCCC4)ccc31)[C@H](C(=O)Nc1nc3ccccc3s1)[C@H]1C(=O)O[C@H](c3ccccc3)[C@H](c3ccccc3)N1[C@@H]2c1ccc(OCCO)cc1", "label-value": "fulfilled"}
{"compound": "CC(C)Cc1ccc(CN2CC[C@@H](N)C2)cc1", "label-value": "not fulfilled"}
{"compound": "CCCCN1CC=CC23O[C@@H]4/C=C\\CCCOC(=O)C4[C@H]2C(=O)N(CCCO)[C@@H]3C1=O (some centres not stated)", "label-value": "not fulfilled"}
{"compound": "COc1ccc(NC(=O)O[C@H]2[C@H](OC(=O)c3cc4ccccc4[nH]3)[C@@H](OC(=O)c3cc4ccccc4[nH]3)[C@@H](OC)O[C@@H]2CO)cc1", "label-value": "fulfilled"}

* * *

# system-name: NADPH oxidase 2 (Homo sapiens) (UniProt P04839)
# Sequence (P04839 whole entry, looked up): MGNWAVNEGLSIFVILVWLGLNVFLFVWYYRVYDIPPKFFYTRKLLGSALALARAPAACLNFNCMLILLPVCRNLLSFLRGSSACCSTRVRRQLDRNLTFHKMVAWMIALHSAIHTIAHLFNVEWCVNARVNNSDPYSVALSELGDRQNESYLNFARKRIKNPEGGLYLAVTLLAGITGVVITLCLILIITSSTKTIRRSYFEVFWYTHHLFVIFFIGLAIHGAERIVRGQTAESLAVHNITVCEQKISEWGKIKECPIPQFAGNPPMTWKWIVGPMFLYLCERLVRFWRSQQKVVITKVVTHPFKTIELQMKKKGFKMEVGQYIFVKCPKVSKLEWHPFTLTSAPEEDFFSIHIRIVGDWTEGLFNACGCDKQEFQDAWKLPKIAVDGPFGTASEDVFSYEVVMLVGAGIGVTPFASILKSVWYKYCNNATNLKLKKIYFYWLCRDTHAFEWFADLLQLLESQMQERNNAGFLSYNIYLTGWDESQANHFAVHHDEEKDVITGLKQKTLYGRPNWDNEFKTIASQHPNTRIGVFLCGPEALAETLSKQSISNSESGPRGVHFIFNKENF
# protocol-description: compounds shifting NOX2 Amplex Red fluorescence – cell-based, HEK293-NOX2, PMA-stimulated, NOX inhibitor project, primary screen (AID 1159); also: test concentration not given here
# condition-description: 45 min, higher = more signal, called active from +8 up or from −8 down
Parameter threshold = -0.1. Response is MET when z-score meets or exceeds it, else NOT MET.

{"compound": "CN1CCC(CCCO)=CC1c1cccs1 (stereo unspecified)", "label-value": "MET"}
{"compound": "O=C(O)[C@H]1C[C@H]2C(=O)N3CCC[C@H]3C(=O)N2[C@H]1c1ccc(O)cc1", "label-value": "MET"}
{"compound": "COc1ccc([C@H]2OC[C@@H]3CCC(=O)N32)cc1", "label-value": "MET"}
{"compound": "C=C(/C(=C/C[C@H](OC(C)=O)c1ccc(OCCO)cc1)c1cc(C(=O)OC)ccc1OC)C(C)C", "label-value": "MET"}
{"compound": "C=C(CCCC)/C(=C/C[C@H](OC(=O)c1ccncc1)c1ccc(OCCO)cc1)c1cc(C(=O)OC)ccc1OC", "label-value": "NOT MET"}
{"compound": "COC(=O)[C@@]1(CCC(=O)OC(C)(C)C)N=C(c2ccc(OCCCO)cc2)O[C@H]1c1ccccc1", "label-value": "NOT MET"}
{"compound": "COC(=O)[C@]1(Cc2ccccc2)N=C(c2ccc(OCCCO)cc2)O[C@@H]1c1ccccc1N=[N+]=[N-]", "label-value": "NOT MET"}
{"compound": "O=C1C2C=CC(C(O)C=Cc3ccc([N+](=O)[O-])cc3)N(Nc3ccccc3F)C2C(=O)N1c1ccccc1 (stereo unspecified)", "label-value": "NOT MET"}
{"compound": "C=CCOC(=O)[C@H]1[C@@H]2C(=O)O[C@@H](c3ccccc3)[C@@H](c3ccccc3)N2[C@@H](c2ccc(OCCOC(=O)[C@@H]3C[C@@H]4C(=O)N5CCC[C@H]5C(=O)N4[C@@H]3c3cccc(OCCO)c3)cc2)[C@]12C(=O)Nc1ccc(I)cc12", "label-value": "MET"}
{"compound": "O=C1OCC=C[C@H]2OC34C=CCN(Cn5nnc6ccccc65)C(=O)[C@H]3N(CCCCCO)C(=O)[C@@H]4[C@@H]12 (stereo partly specified)", "label-value": "MET"}
{"compound": "CCOC(=O)C1=CC[C@H]2C(=O)N(c3ccccc3)C(=O)[C@@H]12", "label-value": "NOT MET"}
{"compound": "O=c1cccc(-c2ccccc2Cl)o1", "label-value": "MET"}
{"compound": "CN1C(=O)C2C=CC(C(O)c3ccc(F)cc3)N(N(c3ccccc3)c3ccccc3)C2C1=O (stereo unspecified)", "label-value": "NOT MET"}
{"compound": "COC(=O)[C@@]1(Cc2ccccc2)[C@H]2c3cc(C(=O)N(C)C)n(CCc4c[nH]c5ccc(O)cc45)c3C[C@H]2CN1C(=O)c1ccccc1", "label-value": "NOT MET"}
{"compound": "COC(=O)[C@@]1(Cc2ccc(F)cc2)[C@H]2c3cc(C(=O)N(C)C)n(Cc4cc(C)n(C)n4)c3C[C@H]2CN1C(=O)c1ccccc1", "label-value": "MET"}

* * *

# system-name: Fibroblast growth factor 2 (Homo sapiens) (UniProt P09038)
# Sequence (P09038 whole entry, looked up): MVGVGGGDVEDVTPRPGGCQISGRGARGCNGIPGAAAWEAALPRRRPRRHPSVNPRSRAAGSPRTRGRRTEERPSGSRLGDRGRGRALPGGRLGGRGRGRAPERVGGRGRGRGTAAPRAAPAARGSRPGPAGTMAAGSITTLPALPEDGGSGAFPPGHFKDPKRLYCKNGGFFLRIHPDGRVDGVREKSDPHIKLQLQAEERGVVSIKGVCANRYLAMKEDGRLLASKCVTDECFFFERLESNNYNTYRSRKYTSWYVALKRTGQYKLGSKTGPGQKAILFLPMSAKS
# protocol-description: basic fibroblast growth factor binding to printed compounds – biochemical, small-molecule microarray, 635/667 nm fluorescence, primary screen (AID 1133)
# condition-description: FGF2, fluorescence 635/667, higher = more signal

{"compound": "CCCCC(=C=CC[C@@H](O)c1ccc(CO)o1)CCO", "composite z-score": 1.13}
{"compound": "COCCOC(=O)N1C(=O)[C@@]2(c3cc(C#CC4(O)CCCCCC4)ccc31)[C@H](C(=O)Nc1nc3ccccc3s1)[C@H]1C(=O)O[C@H](c3ccccc3)[C@H](c3ccccc3)N1[C@@H]2c1ccccc1OCCO", "composite z-score": 1.37}
{"compound": "C=C(C(=O)CC[C@H](OC(C)=O)c1ccccc1OCCO)C(C)C", "composite z-score": 0.38}
{"compound": "COc1ccc(-c2cc3c(c(Cc4ccccc4)n2)[Si](C(C)C)(C(C)C)OC3)cn1", "composite z-score": -0.328}
{"compound": "C=CCNC(=O)[C@@H]1[C@H]2C(=O)O[C@H](c3ccccc3)[C@H](c3ccccc3)N2[C@H](c2ccc(OCCO)cc2)[C@@]12C(=O)N(C(=O)OCCOC)c1ccc(C#CCNC(N)=O)cc12", "composite z-score": 1.34}
{"compound": "N#Cc1ccc(C(O)C2C=CC3C(=O)N(c4ccccc4)C(=O)C3N2Nc2ccccc2F)cc1 (centres undefined)", "composite z-score": 0.191}
{"compound": "COc1ccccc1CN1C(=O)c2ccccc2[C@@]2(Cc3ccccc3N(CCCN(C)C)C2=O)[C@@H]1c1ccc(CO)cc1", "composite z-score": 0.459}
{"compound": "C[N+](C)(C)CCCC[C@@H]1NC(=O)[C@@H]2C[C@H](C(=O)NCCCCCN)[C@H](c3ccc(O)cc3)N2C1=O", "composite z-score": 1.8}
{"compound": "CCCC=C(CCC)[C@@H](NC(=O)OCC(C)C)c1ccccc1", "composite z-score": 0.16}
{"compound": "O=C(NCCN1CCOCC1)[C@@H]1c2ccccc2C(=O)N(Cc2cc(C(F)(F)F)cc(C(F)(F)F)c2)[C@H]1c1ccc(CO)cc1", "composite z-score": -0.879}
{"compound": "COc1ccc([Si](C)(C)[C@@H]2[C@@H](CCn3cc([C@H](O)c4ccccc4)nn3)O[C@]3(C(=O)N(Cc4cccc(N5CCC5=O)c4)c4ccccc43)[C@H]2C)cc1", "composite z-score": 1.06}
{"compound": "C=CCOC(=O)[C@H]1[C@@H]2C(=O)O[C@@H](c3ccccc3)[C@@H](c3ccccc3)N2[C@@H](c2ccc(OCCOC(=O)[C@@H]3C[C@@H]4C(=O)N5CCC[C@H]5C(=O)N4[C@@H]3c3cccc(OCCO)c3)cc2)[C@]12C(=O)Nc1ccc(I)cc12", "composite z-score": 1.4}
{"compound": "O=C1OCCC=C[C@H]2OC34C=CCN(c5ccc(Cl)cc5)C(=O)[C@H]3N(CCCO)C(=O)[C@@H]4C12 (some centres undefined)", "composite z-score": -0.584}
{"compound": "COc1ccc(CCNC(=O)[C@@]2(c3ccc([N+](=O)[O-])cc3)CC(=O)N(CC34CC5CC(CC(C5)C3)C4)[C@@H]2c2ccc(CO)cc2I)cc1", "composite z-score": 1.37}
{"compound": "COC(=O)c1c2oc(c1C(=O)OC)C(=O)NC1(CCCCC1)c1cn(nn1)C[C@H](Cc1ccccc1)NC(=O)N[C@H](CO)CC2", "composite z-score": 0.0141}
{"compound": "COCCOC(=O)N1C(=O)[C@@]2(c3cc(C#CC4=CCCCC4)ccc31)[C@H](c1ccc(OCCO)cc1)N1[C@H](c3ccccc3)[C@H](c3ccccc3)OC(=O)[C@H]1[C@@H]2C(=O)N1CCc2cc(OC)c(OC)cc2C1", "composite z-score": 1.32}
{"compound": "COC(=O)[C@@]1(Cc2ccccc2)[C@H]2c3cc(C(=O)N4CCCC4)n(Cc4c(CO)[nH]cc(C)c4=O)c3C[C@H]2CN1C(=O)c1ccccc1", "composite z-score": -0.258}
{"compound": "CCCC[C@@H]1C[C@H]1[C@@H](NC(=O)c1cccnc1)c1ccc(Cl)cc1", "composite z-score": -2.46}
{"compound": "COc1ccc(NN2C(C(O)c3ccc(N(C)C)cc3)C=CC3C(=O)N(C4CCCCC4)C(=O)C32)cc1 (centres undefined)", "composite z-score": -0.24}
{"compound": "CC(C)[Si](C#CCCCC#N)(Oc1ccccc1Br)C(C)C", "composite z-score": 0.223}
{"compound": "COCCCNC(=O)[C@@H]1c2ccccc2C(=O)N(Cc2ccccc2)[C@H]1c1ccc(CO)cc1", "composite z-score": 0.594}
{"compound": "CCCCN1CC=CC23O[C@@H]4/C=C\\CCCOC(=O)C4[C@H]2C(=O)N(CCCO)[C@@H]3C1=O (some centres undefined)", "composite z-score": -0.251}
{"compound": "O=C1C2C=CC(C(O)c3ccc(F)cc3)N(Nc3ccc([N+](=O)[O-])cc3)C2C(=O)N1c1ccccc1 (centres undefined)", "composite z-score": -0.0449}
{"compound": "CN1C(=O)C2C=CC(C(O)C=Cc3ccc([N+](=O)[O-])cc3)N(Nc3ccccc3)C2C1=O (centres undefined)", "composite z-score": 0.028}
{"compound": "[N-]=[N+]=Nc1ccccc1[C@H]1OC(c2ccc(OCCCO)cc2)=N[C@@]1(Cc1ccccc1)C(=O)N1CCOCC1", "composite z-score": 1.66}
{"compound": "CCOC(=O)C1=CC[C@H]2C(=O)N(c3ccccc3)C(=O)[C@@H]12", "composite z-score": 0.385}
{"compound": "C=CCNC(=O)[C@H]1[C@@H]2C(=O)O[C@@H](c3ccccc3)[C@@H](c3ccccc3)N2[C@@H](c2ccc(O)cc2)[C@]12C(=O)Nc1ccc(C#CCCO)cc12", "composite z-score": -0.869}
{"compound": "CCOC(=O)C[C@H]1[C@H](OC(=O)c2ccc(-c3ccccc3)cc2)[C@@H](NC(=O)c2ccccc2)c2cc(OCCCO)ccc2N1C(=O)Cc1ccc(OC)cc1", "composite z-score": 0.1}
{"compound": "C#CCN1[C@@H](Cc2ccc(O)cc2)C(=O)O[C@H](Cc2ccccc2)[C@@H]1/C=C/C1CC1", "composite z-score": 0.571}
